Kindly state pEC50 for each of the entries shown.
# System: HCV genotype 1b (Con1) replicon in HUH-7 cells
# experiment-summary: HCV replicon luciferase reporter assay, genotype 1b
# Type: cell-based
# applied-conditions: Hepatitis C virus, Huh-7, 72 h, HCV genotype 1b replicon luciferase, 3 days incubation, read-out: LE_1b (EC50, range)
pEC50: −log10 of the molar value.

See these solved cases before continuing.
[[record]]
smiles_string = "COc1cc2c(OC)cnc(O[C@@H]3C[C@H]4C(=O)N[C@]5(C(=O)NS(=O)(=O)C6(CO)CC6)C[C@H]5/C=C\\CC[C@@H](C)C[C@@H](C)[C@H](NC(=O)OC(C)(C)C)C(=O)N4C3)c2cc1F"
value = "> 8.26"

[[record]]
smiles_string = "COc1cc2cc(-c3ccc(OC(C)C)cc3)nc(O[C@@H]3C[C@H]4C(=O)N[C@]5(C(=O)NS(=O)(=O)C6CC6)C[C@H]5/C=C\\CC[C@@H](C)C[C@@H](C)[C@H](NC(=O)O[C@@H]5C[C@@H]6C[C@@H]6C5)C(=O)N4C3)c2cc1F"
value = "> 8.26"

[[record]]
smiles_string = "COc1ccc2c(O[C@@H]3C[C@H]4C(=O)N[C@]5(C(=O)NS(=O)(=O)C6(C)CC6)C[C@H]5/C=C\\CC[C@@H](C)C[C@@H](C)[C@H](NC(=O)c5ccn(C)c(=O)c5)C(=O)N4C3)ncc(OC)c2c1"
value = "6.99 to 8.32"

[[record]]
smiles_string = "CC[C@@H]1C[C@H](C)CC/C=C\\[C@@H]2C[C@@]2(C(=O)NS(=O)(=O)C2(C)CC2)NC(=O)[C@@H]2C[C@@H](Oc3nc(OC)cc4ccccc34)CN2C(=O)[C@H]1NC(=O)OC(C)(C)C(F)(F)F"
value = "> 8.26"


Give measured pEC50 for every item shown.
1. CCOc1nnc(O[C@@H]2C[C@H]3C(=O)N[C@]4(C(=O)NS(=O)(=O)C5(C)CC5)C[C@H]4/C=C\CC[C@@H](C)C[C@@H](C)[C@H](NC(=O)OC(C)(C)C(F)(F)F)C(=O)N3C2)c2ccccc12
2. C=C1C=Cc2c(O[C@@H]3C[C@H]4C(=O)N[C@]5(C(=O)NS(=O)(=O)C6CC6)C[C@H]5/C=C\CC[C@@H](C)C[C@@H](CC)[C@H](NC(=O)OC(C)(C)C)C(=O)N4C3)ncc(OC)c2C1
3. COc1ccc2c(O[C@@H]3C[C@H]4C(=O)N[C@]5(C(=O)NS(=O)(=O)C6CC6)C[C@H]5/C=C\CC[C@@H](C)C[C@@H](C)[C@H](NC(=O)OC(C)(C)C)C(=O)N4C3)nc(-c3ccc(OC(C)C)cc3)cc2c1
4. CC[C@@H]1C[C@H](C)CC/C=C\[C@@H]2C[C@@]2(C(=O)NS(=O)(=O)C2(C)CC2)NC(=O)[C@@H]2C[C@@H](Oc3nccc4cc(OC)c(F)cc34)CN2C(=O)[C@H]1NC(=O)N1CCN(C)CC1
5. CC[C@@H]1C[C@H](C)CC/C=C\[C@@H]2C[C@@]2(C(=O)NS(=O)(=O)C2CC2)NC(=O)[C@@H]2C[C@@H](Oc3ncc(OC)c4ccc(F)cc34)CN2C(=O)[C@H]1NC(=O)OC(C)(C)C(F)(F)F

Response given:
["> 8.26", "> 8.26", "> 8.26", "7.46 to 8.30", "> 8.26"]

* * *

# Tested on: HCV genotype 1b (Con1) replicon in HUH-7 cells
# experiment-summary: HCV replicon luciferase reporter assay, genotype 1b
# Assay type: cell-based
# applied-conditions: Hepatitis C virus, Huh-7, 72 h, HCV genotype 1b replicon luciferase, 3 days incubation, read-out: LE_1b (EC50, range)
pEC50: −log10 of the molar value.
value-type: pEC50

Worked cases, answers included:
[[record]]
smiles_string = "CC[C@@H]1C[C@@H](C)CC/C=C\\[C@@H]2C[C@@]2(C(=O)NS(=O)(=O)C2CC2)NC(=O)[C@@H]2C[C@@H](Oc3nccc4c5c(ccc34)OCCO5)CN2C(=O)[C@H]1NC(=O)OC(C)(C)C(C)(F)F"
system_name = "HCV genotype 1b (Con1) replicon in HUH-7 cells"
value = "> 8.26"

[[record]]
smiles_string = "[2H]C([2H])([2H])Oc1cnc(O[C@@H]2C[C@H]3C(=O)N[C@]4(C(=O)NS(=O)(=O)C5(C)CC5)C[C@H]4/C=C\\CC[C@@H](C)C[C@@H](C)[C@H](NC(=O)OC(C([2H])([2H])[2H])(C([2H])([2H])[2H])C(F)(F)F)C(=O)N3C2)c2ccccc12"
system_name = "HCV genotype 1b (Con1) replicon in HUH-7 cells"
value = "> 8.26"

[[record]]
smiles_string = "COc1cc2ccnc(O[C@@H]3C[C@H]4C(=O)N[C@]5(C(=O)NS(=O)(=O)C6CC6)C[C@H]5/C=C\\CC[C@@H](C)C[C@@H](C)[C@H](NC(=O)OC(C)(C)C(C)(F)F)C(=O)N4C3)c2cc1OC"
system_name = "HCV genotype 1b (Con1) replicon in HUH-7 cells"
value = "8.30 to 9.00"


I'm hoping you can list pEC50 for every compound here, please.
1. C[C@H]1CC/C=C\[C@@H]2C[C@@]2(C(=O)NS(=O)(=O)C2CC2)NC(=O)[C@@H]2C[C@@H](Oc3nccc4c5c(ccc34)N(C)CCO5)CN2C(=O)[C@@H](NC(=O)NC(C)(C)C)[C@H](C)C1
2. CC[C@@H]1C[C@H](C)CC/C=C\[C@@H]2C[C@@]2(C(=O)NS(=O)(=O)C2(C)CC2)NC(=O)[C@@H]2C[C@@H](Oc3nccc4cc(OC)c(Cl)cc34)CN2C(=O)[C@H]1NC(=O)OC(C)(C)C(C)(F)F
3. [2H]C([2H])([2H])C(OC(=O)N[C@@H]1C(=O)N2C[C@H](Oc3nc(-c4ccc(OC(C)C)nc4)cc4cc(OC)ccc34)C[C@H]2C(=O)N[C@]2(C(=O)NS(=O)(=O)C3(C)CC3)C[C@H]2/C=C\CC[C@H](C)C[C@H]1C)(C([2H])([2H])[2H])C(F)(F)F
4. CCOc1nnc(O[C@@H]2C[C@H]3C(=O)N[C@]4(C(=O)NS(=O)(=O)C5(C)CC5)C[C@H]4/C=C\CC[C@H](C)C[C@@H](C)[C@H](NC(=O)OC(C)(C)C)C(=O)N3C2)c2ccccc12

Response given:
1. > 8.26
2. 8.30 to 9.00
3. 6.99 to 8.32
4. > 8.26

// each listed compound needs a value for pEC50
1. CC(C)Oc1ccc2c(O[C@@H]3C[C@H]4C(=O)N[C@]5(C(=O)NS(=O)(=O)C6(C)CC6)C[C@H]5/C=C\CC[C@@H](C)C[C@@H](C)[C@H](NC(=O)O[C@@H]5C[C@@H]6C[C@@H]6C5)C(=O)N4C3)nccc2c1
2. C[C@H]1CC/C=C\[C@@H]2C[C@@]2(C(=O)NS(=O)(=O)C2CC2)NC(=O)[C@@H]2C[C@@H](Oc3nccc4c5c(ccc34)N(C)CCO5)CN2C(=O)[C@@H](NC(=O)OC(C)(C)C)[C@H](C)C1
3. COc1ccc2c(O[C@@H]3C[C@H]4C(=O)N[C@]5(C(=O)NS(=O)(=O)C6CC6)C[C@H]5/C=C\CC[C@H](C)C[C@@H](C)[C@H](NC(=O)OC(C)(C)C)C(=O)N4C3)nc(-c3ccc(OC(C)C)nc3)cc2c1
4. COc1ccc2c(O[C@@H]3C[C@H]4C(=O)N[C@]5(C(=O)NS(=O)(=O)C6(F)CC6)C[C@H]5/C=C\CC[C@@H](C)C[C@@H](C)[C@H](NC(=O)O[C@H](C)C(F)(F)F)C(=O)N4C3)nccc2c1
5. CC[C@@H]1C[C@H](C)CC/C=C\[C@@H]2C[C@@]2(C(=O)NS(=O)(=O)C2CC2)NC(=O)[C@@H]2C[C@@H](Oc3nc4cc(OC)ccc4nc3O)CN2C(=O)[C@H]1NC(=O)OC(C)(C)C
6. COc1ccc2c(O[C@@H]3C[C@H]4C(=O)N[C@]5(C(=O)NS(=O)(=O)C6(C)CC6)C[C@H]5/C=C\CC[C@@H](C)C[C@@H](C)[C@H](NC(=O)OC(C)(C)C(F)(F)F)C(=O)N4C3)nc(-c3ccc(OC(C)C)nc3)cc2c1

Response given:
1: > 8.26; 2: > 8.26; 3: > 8.26; 4: > 8.26; 5: 6.21 to 7.46; 6: > 8.26

Would you be so kind as to report pEC50 for each listed record?
1. CC(C)Oc1ccc2c(O[C@@H]3C[C@H]4C(=O)N[C@]5(C(=O)NS(=O)(=O)C6CC6)C[C@H]5/C=C\CC[C@H](C)C[C@@H](C)[C@H](NC(=O)O[C@H](C)C(F)(F)F)C(=O)N4C3)nccc2c1
2. C[C@H]1CC/C=C\[C@@H]2C[C@@]2(C(=O)NS(=O)(=O)C2CC2)NC(=O)[C@@H]2C[C@@H](Oc3nccc4c5c(ccc34)OCCO5)CN2C(=O)[C@@H](NC(=O)OC(C)(C)C(F)(F)F)[C@H](C)C1
3. CC[C@@H]1C[C@H](C)CC/C=C\[C@@H]2C[C@@]2(C(=O)NS(=O)(=O)C2(CF)CC2)NC(=O)[C@@H]2C[C@@H](Oc3nccc4c5c(ccc34)OCCO5)CN2C(=O)[C@H]1NC(=O)OC(C)(C)C(F)(F)F

Response given:
["> 8.26", "> 8.26", "7.46 to 8.30"]

Source: patent US9499550B2
